Reference for the values: paper PMC7205207

Assay: AC-SINS; self-association assay, as in Avery et al. [35]; score = smoothed max absorbance of the antibody sample minus that of the average blank (PBS); scores >=11 considered high
Conditions: other: AC-SINS
endpoint name: AC-SINS Score
The answer should be written as a number, with no unit following it.

Past entries and their recorded results:
1. R2-006 (antibody, V domains shown, as the VH of m20 (R2-001_HC); as the VL of m20 (R2-001_LC) with S52K (Kabat); only the variable regions are written; source: HEK293, transient, purified from conditioned medium (protein A, TMAE, HIC)) VH: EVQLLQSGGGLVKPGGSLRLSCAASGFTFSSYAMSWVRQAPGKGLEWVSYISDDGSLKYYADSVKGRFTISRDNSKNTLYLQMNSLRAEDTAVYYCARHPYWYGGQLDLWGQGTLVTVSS VL: SYVLTQPPSVSVAPGKTARITCSGDSLGSYFVHWYQQKPGQSPVLVIYDDKKRPSGIPERFSGSNSGNTATLTISGTQAMDEADYYCSAFTHNSDVFGGGTKLTVL | 25
2. R1-016 (antibody, V domains shown, only the variable regions are written; source: HEK293, transient, purified from conditioned medium (protein A, TMAE, HIC)) VH: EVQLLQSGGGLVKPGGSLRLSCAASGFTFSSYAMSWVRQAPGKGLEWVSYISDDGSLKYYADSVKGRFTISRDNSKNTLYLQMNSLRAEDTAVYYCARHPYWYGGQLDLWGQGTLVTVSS VL: SYELTQPPSVSVSPGQTASITCSGDSLGSYFVHWYQQKPGQSPVLVIYDDSKRPSGIPERFSGSNSGNTATLTISGTQAMDEADYYCSAFTHNSDVFGGGTKLTVL | 24
3. R2-020 (antibody, V domains shown, as the VH of m20 (R2-001_HC); as the VL of m20 (R2-001_LC) with D51N (Kabat); only the variable regions are written; source: HEK293, transient, purified from conditioned medium (protein A, TMAE, HIC)) VH: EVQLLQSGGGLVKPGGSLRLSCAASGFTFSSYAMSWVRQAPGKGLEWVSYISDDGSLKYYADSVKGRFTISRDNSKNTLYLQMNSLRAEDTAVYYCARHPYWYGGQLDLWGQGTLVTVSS VL: SYVLTQPPSVSVAPGKTARITCSGDSLGSYFVHWYQQKPGQSPVLVIYDNSKRPSGIPERFSGSNSGNTATLTISGTQAMDEADYYCSAFTHNSDVFGGGTKLTVL | 4

Below: the item to evaluate.
Lookup: Which AC-SINS Score is listed for R2-001 (antibody, V domains shown, R2-001_HC: as the VH of m17 (R1-016), on which R2-001 was built; R2-001_LC: as the VL of m17 (R1-016) with FW1 changed to that of IGLV3-21*01; only the variable regions are written; also called round 2 parental R2-001; R2-001_HC with R2-001_LC; source: HEK293, transient, purified from conditioned medium (protein A, TMAE, HIC)) VH: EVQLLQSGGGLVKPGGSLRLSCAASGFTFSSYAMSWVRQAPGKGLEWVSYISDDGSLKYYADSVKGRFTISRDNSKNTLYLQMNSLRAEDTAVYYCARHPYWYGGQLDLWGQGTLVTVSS VL: SYVLTQPPSVSVAPGKTARITCSGDSLGSYFVHWYQQKPGQSPVLVIYDDSKRPSGIPERFSGSNSGNTATLTISGTQAMDEADYYCSAFTHNSDVFGGGTKLTVL ?
Found: 24
